molecular target: human liver Cat B (Homo sapiens); assay: Cathepsin B inhibition assay; conditions: read-out: Cat B IC50; mean ± SE
measure: pIC50
Answers are plain numbers, as −log10 of the molar value.

Consider the reported pIC50 for these molecules:
CC(C)[C@H](NC(=O)[C@H](C)NC(=O)[C@@H](N1Cc2ccccc2C1=O)C(C)(C)C)C(=O)C(=O)NCc1ccc(S(N)(=O)=O)cc1 [Compound 56] : 5.52
CC(C)[C@H](NC(=O)[C@H](C)NC(=O)[C@@H](NC(=O)C1CCN(C)CC1)C(C)(C)C)C(=O)C(=O)NCc1ccccc1 [Compound 31] : 6.55
CC(C)C(NC(=O)[C@H](C)NC(=O)[C@H](Cc1ccccc1)NC(=O)c1ccccc1)C(=O)C(=O)NC1CCOCC1 (mixture of isomers) [Compound 33] : 6.51
CC(C)[C@H](NC(=O)[C@H](C)NC(=O)[C@H](Cc1ccccc1)NC(=O)c1ccccc1)C(=O)C(=O)NCC(=O)N1CCCCC1 [Compound 46] : 7.09
CC(C)[C@H](NC(=O)[C@H](C)NC(=O)[C@@H](NC(=O)C1CC[N+](C)(C)CC1)C(C)(C)C)C(=O)C(=O)NCc1ccccc1.O=C[O-] [Compound 32] : 6.56
CC(C)[C@H](NC(=O)[C@H](C)NC(=O)[C@@H](NC(=O)c1ccccc1)C(C)(C)C)C(=O)C(=O)NCc1ccc(CN(C)C)cc1 [Compound 41] : 6.62
CC(C)[C@H](NC(=O)[C@H](C)NC(=O)[C@H](Cc1ccccc1)NC(=O)c1ccccc1)C(=O)C(=O)NCc1ccccc1 [Compound 20] : 7.30

Shifting focus to the molecule that follows.
Documented pIC50 of CC(C)[C@H](NC(=O)[C@H](C)NC(=O)[C@@H](NC(=O)c1ccccc1)C(C)(C)C)C(=O)C(=O)NC1CC1 [Compound 35] : 6.38

* * *

target: Der p 1 (Dermatophagoides pteronyssinus); assay: biochemical; type: biochemical; conditions: mean ± SE
Sequence (P08176 99-320): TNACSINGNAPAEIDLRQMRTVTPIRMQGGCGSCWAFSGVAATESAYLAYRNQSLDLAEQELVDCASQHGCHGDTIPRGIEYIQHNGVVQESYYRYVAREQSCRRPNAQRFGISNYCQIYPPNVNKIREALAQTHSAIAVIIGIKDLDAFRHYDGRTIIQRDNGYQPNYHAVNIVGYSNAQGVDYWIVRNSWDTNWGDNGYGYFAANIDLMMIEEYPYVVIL
measure: IC50

CC(C)[C@H](NC(=O)[C@H](C)NC(=O)[C@@H](NC(=O)c1ccccc1)C(C)(C)C)C(=O)C(=O)NCc1ccc(CN(C)C)cc1 : 8 nM
CC(C)[C@H](NC(=O)[C@H](C)NC(=O)[C@@H](NC(=O)c1ccccc1)C(C)(C)C)C(=O)C(=O)NC1CCCCC1 : 14 nM
CCCC[C@H](NC(=O)[C@H](C)NC(=O)[C@H](Cc1ccccc1)NC(=O)c1ccccc1)C(=O)CN1CCCC1 : 65 nM

Field: IC50. Fill in for each record below.
1. CC(C)[C@H](NC(=O)[C@H](C)NC(=O)[C@@H](NC(=O)c1ccnc2ccccc12)C(C)(C)C)C(=O)C(=O)NCc1ccccc1
2. CC(C)[C@H](NC(=O)[C@H](C)NC(=O)[C@@H](N1Cc2ccccc2C1=O)C(C)(C)C)C(=O)C(=O)NCc1ccc(CN(C)C)cc1

**A:**
18 nM
4 nM

* * *

biological target: human plasma thrombin (Homo sapiens, UniProt P00734); construct: thrombin in modified HEPES buffer pH 7.5; test: Protease counter-screening: Thrombin; settings: test concentration 0.3-100 µM
measure: IC50

The compound listed as CC(C)[C@H](NC(=O)[C@H](C)NC(=O)[C@@H](NC(=O)c1ccccc1)C(C)(C)C)C(=O)C(=O)NCc1ccccc1 has a reported IC50 of > 100 µM

Recorded values, source paper PMC4257840.
